test system: MOLT-4; test: NCI SRB cytotoxicity, Leukemia MOLT-4; format: cell-based, human; settings: MOLT-4, Leukemia, 48 h
Attribute: Log LC 50
reported_endpoint: Log LC 50 (mol/L)

INSERT INTO results (smiles_repr, unit_tag, observed_measurement) VALUES
  ('COc1cc2c(cc1OCCCCN1CCN(CCCCOc3cc4c(cc3OC)C(=O)N3CCC[C@H]3C=N4)CC1)N=C[C@@H]1CCCN1C2=O', 'mol/L', '−4.00'),
  ('COc1cc2c(cc1OCCCN1CCN(CCCOc3cc4c(cc3OC)C(=O)N3CCC[C@H]3C=N4)CC1)N=C[C@@H]1CCCN1C2=O', 'mol/L', '−4.08'),
  ('COc1cc2c(cc1OCCN1CCN(CCOc3cc4c(cc3OC)C(=O)N3CCC[C@H]3C=N4)CC1)N=C[C@@H]1CCCN1C2=O', 'mol/L', '−4.10'),
  ('COc1cc2c(cc1OCCCCCN1CCN(CCCCCOc3cc4c(cc3OC)C(=O)N3CCC[C@H]3C=N4)CC1)N=C[C@@H]1CCCN1C2=O', 'mol/L', '−4.00');

* * *

system: SK-MEL-28; assay: NCI SRB cytotoxicity, Melanoma SK-MEL-28; type: cell-based, human; settings: SK-MEL-28, Melanoma, 48 h
Quick reference: Log GI 50 of the listed items.
reported_endpoint: Log GI 50 (mol/L)

INSERT INTO results (smiles_repr, reported_endpoint, unit_tag, observed_measurement) VALUES
  ('COc1cc2c(cc1OCCCN1CCN(CCCOc3cc4c(cc3OC)C(=O)N3CCC[C@H]3C=N4)CC1)N=C[C@@H]1CCCN1C2=O', 'Log GI 50', 'mol/L', '−4.48'),
  ('COc1cc2c(cc1OCCCCCN1CCN(CCCCCOc3cc4c(cc3OC)C(=O)N3CCC[C@H]3C=N4)CC1)N=C[C@@H]1CCCN1C2=O', 'Log GI 50', 'mol/L', '−4.71'),
  ('COc1cc2c(cc1OCCCCN1CCN(CCCCOc3cc4c(cc3OC)C(=O)N3CCC[C@H]3C=N4)CC1)N=C[C@@H]1CCCN1C2=O', 'Log GI 50', 'mol/L', '−7.69'),
  ('COc1cc2c(cc1OCCN1CCN(CCOc3cc4c(cc3OC)C(=O)N3CCC[C@H]3C=N4)CC1)N=C[C@@H]1CCCN1C2=O', 'Log GI 50', 'mol/L', '−4.22');

* * *

tested on: MDA-MB-435; test: NCI SRB cytotoxicity, Breast MDA-MB-435; assay type: cell-based, human; conditions: MDA-MB-435, Breast, 48 h
reported_endpoint: Log LC 50 (mol/L)

INSERT INTO measurements (smiles_repr, tgt, unit_tag, observed_measurement) VALUES
  ('COc1cc2c(cc1OCCCCCN1CCN(CCCCCOc3cc4c(cc3OC)C(=O)N3CCC[C@H]3C=N4)CC1)N=C[C@@H]1CCCN1C2=O', 'MDA-MB-435', 'mol/L', '−4.00'),
  ('COc1cc2c(cc1OCCCCN1CCN(CCCCOc3cc4c(cc3OC)C(=O)N3CCC[C@H]3C=N4)CC1)N=C[C@@H]1CCCN1C2=O', 'MDA-MB-435', 'mol/L', '−7.15'),
  ('COc1cc2c(cc1OCCN1CCN(CCOc3cc4c(cc3OC)C(=O)N3CCC[C@H]3C=N4)CC1)N=C[C@@H]1CCCN1C2=O', 'MDA-MB-435', 'mol/L', '−4.08'),
  ('COc1cc2c(cc1OCCCN1CCN(CCCOc3cc4c(cc3OC)C(=O)N3CCC[C@H]3C=N4)CC1)N=C[C@@H]1CCCN1C2=O', 'MDA-MB-435', 'mol/L', '−4.09');

Origin of measurements: patent US7015215B2
